Catalogue of compounds with associated Log BR
Tested on: Rattus norvegicus
Assay: The total 18 hr urinary excretion of unchanged compound reported as log (percent X 10) of the administered dose
Settings: in vivo

{"columns": ["Compound", "Log BR"],
 "data": [
  ["CCN(CC)CCOCCn1c([N+](=O)[O-])cnc1C", 2.369],
  ["Cc1ncc([N+](=O)[O-])n1CC(O)CO (centres undefined)", 2.155],
  ["O=[N+]([O-])c1c[nH]cn1", 2.529],
  ["Cc1ncc([N+](=O)[O-])n1CC(O)Cn1c([N+](=O)[O-])cnc1C", 2.26],
  ["CN1CCN(Cc2ncc([N+](=O)[O-])n2C)CC1", 2.62],
  ["COC(=S)NCCn1c([N+](=O)[O-])cnc1C [CARNIDAZOLE]", 1.826],
  ["CCS(=O)(=O)CCn1c([N+](=O)[O-])cnc1C [TINIDAZOLE]", 2.468],
  ["Cc1ncc([N+](=O)[O-])n1CC(O)CCl (centres undefined) [ORNIDAZOLE]", 2.121],
  ["O=C1NCCN1c1ncc([N+](=O)[O-])s1 [NIRIDAZOLE]", 1.663],
  ["Cn1c([N+](=O)[O-])cnc1/C=C/c1ccnc(N)n1 [AZANIDAZOLE]", 2.142],
  ["Nc1ncc(S(=O)(=O)c2ccc([N+](=O)[O-])cc2)s1", 2.687],
  ["Cc1ncc([N+](=O)[O-])n1CC(=O)N1CCN(C(=O)Cn2c([N+](=O)[O-])cnc2C)CC1", 2.155],
  ["Cc1ncc([N+](=O)[O-])n1CCO [METRONIDAZOLE]", 2.484],
  ["CC(C)c1ncc([N+](=O)[O-])n1C [IPRONIDAZOLE]", 1.633]
]}
